target: human IDO1 (Homo sapiens, UniProt P14902); test: IDO inhibition assay in HEK293 cells stably expressing human IDO1 (kynurenine production, Ehrlich reagent, absorbance 490 nm); settings: 20 hours incubation with compound, 500 nM reference standard = 100% inhibition, read-out: IDO1 HEK Human IC50
Sequence (P14902 whole entry): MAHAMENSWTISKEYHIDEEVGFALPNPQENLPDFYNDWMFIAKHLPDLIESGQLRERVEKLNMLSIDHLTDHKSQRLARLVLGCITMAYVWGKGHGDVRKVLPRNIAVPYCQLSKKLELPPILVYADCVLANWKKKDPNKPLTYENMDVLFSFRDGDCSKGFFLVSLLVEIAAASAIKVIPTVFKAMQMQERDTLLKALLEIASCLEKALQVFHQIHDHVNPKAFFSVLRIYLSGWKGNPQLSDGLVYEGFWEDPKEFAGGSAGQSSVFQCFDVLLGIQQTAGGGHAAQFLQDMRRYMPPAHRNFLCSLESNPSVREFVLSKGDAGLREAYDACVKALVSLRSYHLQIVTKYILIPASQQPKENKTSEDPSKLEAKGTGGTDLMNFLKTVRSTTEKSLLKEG
Measured Metric: IC50 (nM)

INSERT INTO assay_data (smiles_data, meas_value) VALUES
  ('CC(C)CN(Cc1ccccc1)c1cc(Nc2ccc(Cl)cc2Cl)cc(-c2ccccc2-c2nnn[nH]2)n1', 16.5);

A = CC(C)CN(Cc1ccccc1)c1cc(Nc2nc3ccc(F)cc3s2)cc(-c2ccccc2-c2nnn[nH]2)n1
B = COc1cc(Nc2cc(-c3ccccc3-c3nnn[nH]3)nc(N(Cc3ccccc3)CC(C)C)c2)ccc1F
(Q) Please state the entry with greater IC50 among A and B . Respond with the label that goes with your answer.
(A) A

1 = CCN(Cc1ccccc1)c1cc(NC(=O)Cc2ccc(C)nc2)cc(-c2ccccc2-c2nnn[nH]2)n1
2 = CC(C)CN(Cc1ccc(F)cc1)c1cc(Nc2cccc(C(F)F)n2)cc(-c2ccccc2-c2nnn[nH]2)n1
(Q) Just tell me: smaller IC50 value, 1 or 2 ? Let me know the label of the one you choose.
(A) 2

I = Cc1ccc(Nc2cc(-c3ccccc3-c3nnn[nH]3)nc(N(Cc3ccccc3)CC(C)C)c2)cc1
II = CCCN(Cc1ccccc1)c1cc(NC(=O)C2(c3cccc(F)c3)CC2)cc(-c2ccccc2-c2nn[nH]n2)n1
(Q) Hey, between I and II which has a smaller measured IC50? Kindly give the label for the entry you pick.
(A) I
(I: 4.8 nM, II: 3000 nM)

----------
molecular target: human IDO1 (Homo sapiens, UniProt P14902); test: IDO inhibition assay in HEK293 cells stably expressing human IDO1 (kynurenine production, Ehrlich reagent, absorbance 490 nm); conditions: 20 hours incubation with compound, 500 nM reference standard = 100% inhibition, read-out: IDO1 HEK Human IC50
pIC50: −log10 of the molar value. Where a name gives a salt, the structure may show the parent alone.
Measured Metric: pIC50

INSERT INTO assay_data (molecule, measured_metric, meas_value) VALUES
  ('Cc1cc(CC(=O)Nc2cc(-c3ccccc3-c3nnn[nH]3)nc(N(Cc3ccccc3)CC(C)C)c2)on1 [Example 231]', 'pIC50', 6.17),
  ('CCCN(Cc1ccccc1)c1cc(NC(=O)Cc2cccc(Br)c2)cc(-c2ccccc2-c2nn[nH]n2)n1 [Example 217]', 'pIC50', 6.62),
  ('CCCN(Cc1ccccc1)c1cc(NC(=O)Nc2ccccc2F)cc(-c2ccccc2-c2nnn[nH]2)n1 [Example 262]', 'pIC50', 6.98),
  ('CCCN(c1cc(NC(=O)Nc2ccc(C)cc2)cc(-c2ccccc2C(=O)O)n1)C1CCCCC1 [Example 257]', 'pIC50', 5.72),
  ('CCCN(Cc1ccccc1)c1cc(NC(=O)Cc2ccccc2F)cc(-c2ccccc2-c2nn[nH]n2)n1 [Example 202]', 'pIC50', 6.69),
  ('Cc1ccc(NC(=O)Nc2cc(-c3ccccc3-c3nnn[nH]3)nc(N(Cc3ccccc3)CC(C)C)n2)cc1 [Example 10]', 'pIC50', 6.39),
  ('CC(C)CN(Cc1ccccc1)c1cc(Nc2ccc(C#N)cn2)cc(-c2ccccc2-c2nnn[nH]2)n1 [Example 150]', 'pIC50', 7.62),
  ('CC(C)CN(Cc1ccccc1)c1cc(NC(=O)Cc2ccc(OC(F)(F)F)cc2)cc(-c2ccccc2-c2nnn[nH]2)n1 [Example 235]', 'pIC50', 6.40),
  ('CC(C)CN(Cc1ccccc1)c1cc(Nc2ccc(F)cc2F)cc(-c2ccccc2-c2nnn[nH]2)n1 [Example 56]', 'pIC50', 8.07),
  ('CC(C)CN(CC(C)C)c1cc(NC(=O)Nc2ccccc2F)cc(-c2ccccc2C(=O)O)n1 [Example 252]', 'pIC50', 6.01);

I = CCCN(Cc1ccccc1)c1cc(NC(=O)Nc2ccc(Cl)cc2F)cc(-c2ccccc2-c2nnn[nH]2)n1 [Example 72, TFA]
II = CCCN(c1cc(NC(=O)Nc2ccc(C)cc2)cc(-c2ccccc2-c2nnn[nH]2)n1)C1CCC(C)(C)CC1 [Example 119]
III = CC(C)CN(Cc1ccc(F)cc1)c1cc(Nc2ccn3nccc3n2)cc(-c2ccccc2-c2nnn[nH]2)n1 [Example 42, TFA]
(Q) Number of molecules to sort: 3. Sort criterion: pIC50, ascending. Give me the labels in the order the question wants.
(A) II, III, I
(II: 5.70, III: 6.92, I: 8.07)

1 = CCCN(Cc1ccccc1)c1cc(NC(=O)Nc2ccc(C)nc2)cc(-c2ccccc2-c2nnn[nH]2)n1 [Example 267]
2 = CCN(Cc1ccccc1)c1cc(NC(=O)Nc2ccc3c(c2)OCO3)cc(-c2ccccc2-c2nnn[nH]2)n1 [Example 278]
(Q) Which value of pIC50 is numerically greater: that of 1 or that of 2 ? Please reply using the label of the selected record.
(A) 2

----------
molecular target: human IDO1 (Homo sapiens, UniProt P14902); test: IDO inhibition assay in HEK293 cells stably expressing human IDO1 (kynurenine production, Ehrlich reagent, absorbance 490 nm); conditions: 20 hours incubation with compound, 500 nM reference standard = 100% inhibition, read-out: IDO1 HEK Human IC50
Where a name gives a salt, the structure may show the parent alone.
Measured Metric: IC50 (nM)

// worked examples, IC50 included
INSERT INTO assay_data (compound, value_unit, meas_value) VALUES
  ('Cc1ccc(CC(=O)Nc2cc(-c3ccccc3-c3nnn[nH]3)nc(N3CCN(Cc4ccccc4)C(=O)C3)n2)cc1', 'nM', 1150),
  ('Cc1cc(F)cnc1Nc1cc(-c2ccccc2-c2nnn[nH]2)nc(N(Cc2ccccc2)CC(C)C)c1 [Example 152]', 'nM', 129),
  ('CCCN(Cc1ccccc1)c1cc(NC(=O)Nc2ccc(F)cc2F)cc(-c2ccccc2-c2nnn[nH]2)n1 [Example 71, TFA]', 'nM', 32.2),
  ('CC(C)CN(Cc1ccccc1)c1cc(Nc2ccc(Cl)cc2F)cc(-c2ccccc2-c2nnn[nH]2)n1', 'nM', 2.2),
  ('CCCN(Cc1ccccc1)c1cc(NC(=O)Nc2cc(C)no2)cc(-c2ccccc2-c2nnn[nH]2)n1', 'nM', 2700);

A = CCCN(Cc1ccccc1)c1cc(NC(=O)CC2CCCC2)cc(-c2ccccc2-c2nn[nH]n2)n1
B = CC(C)CN(Cc1ccccc1)c1cc(NC(=O)Cc2ccc(F)c(Cl)c2)cc(-c2ccccc2-c2nnn[nH]2)n1
(Q) Of A and B , whose reported IC50 is numerically smaller? Selection: enter the item's label.
(A) B
(B: 961 nM, A: 1970 nM)

----------
target: human IDO1 (Homo sapiens, UniProt P14902); experiment: IDO inhibition assay in HEK293 cells stably expressing human IDO1 (kynurenine production, Ehrlich reagent, absorbance 490 nm); settings: 20 hours incubation with compound, 500 nM reference standard = 100% inhibition, read-out: IDO1 HEK Human IC50
Structures can show the parent of a compound that is named as a salt.
Measured Metric: IC50 (µM)

Solved cases (3 shown):
INSERT INTO results (molecule, meas_value) VALUES
  ('Cc1ccc(CC(=O)Nc2cc(-c3ccccc3-c3nnn[nH]3)nc(N(Cc3ncccn3)CC(C)C)n2)cc1 [Example 92]', 0.146),
  ('CC(C)CN(Cc1ccccc1)c1cc(NC(=O)Cc2ccc(F)cc2)cc(-c2ccccc2-c2nnn[nH]2)n1 [Example 80, TFA]', 0.35),
  ('CCCN(CC1CC1)c1cc(NC(=O)Cc2ccc(C)cc2F)cc(-c2ccccc2-c2nnn[nH]2)n1 [Example 82, TFA]', 0.731);

a = CCCN(Cc1ccccc1)c1cc(NC(=O)C(F)c2ccccc2)cc(-c2ccccc2-c2nn[nH]n2)n1 (centres unmarked) [Example 212]
b = CCCN(c1cc(NC(=O)Nc2ccc(C)cc2)cc(-c2ccccc2-c2nnn[nH]2)n1)C1CCOCC1 [Example 109]
(Q) Problem: Given the entries a and b , determine which has the lower reported IC50. # respond with the chosen item's label
(A) a

----------
molecular target: human IDO1 (Homo sapiens, UniProt P14902); assay: IDO inhibition assay in HEK293 cells stably expressing human IDO1 (kynurenine production, Ehrlich reagent, absorbance 490 nm); conditions: 20 hours incubation with compound, 500 nM reference standard = 100% inhibition, read-out: IDO1 HEK Human IC50
pIC50: −log10 of the molar value. Counter-ions that a name gives are not always drawn.
Measured Metric: pIC50

Example cases with answers are listed next.
INSERT INTO measurements (molecule, system, meas_value) VALUES
  ('CCN(Cc1ccccc1)c1cc(NC(=O)Nc2ccc(C)cc2)cc(-c2ccccc2-c2nnn[nH]2)n1', 'human IDO1 (Homo sapiens, UniProt P14902)', 7.57),
  ('CC(C)CN(Cc1ccccc1)c1cc(Nc2ncc(F)cn2)cc(-c2ccccc2-c2nnn[nH]2)n1 [Example 55, TFA]', 'human IDO1 (Homo sapiens, UniProt P14902)', 7.94),
  ('CCC(CC(=O)O)c1cc(NC(=O)Nc2ccc(C)cc2)cc(N(Cc2ccccc2)CC(C)C)n1 (single isomer, unassigned)', 'human IDO1 (Homo sapiens, UniProt P14902)', 6.96),
  ('CCC(CC(=O)O)c1cc(Nc2ccc(Cl)cc2)cc(N(Cc2ccccc2)CC(C)C)n1 (racemic)', 'human IDO1 (Homo sapiens, UniProt P14902)', 7.32);

A = Cc1ccc(Nc2cc(-c3ccccc3-c3nnn[nH]3)nc(N(Cc3ccccc3)CC(C)C)c2)c(C#N)c1
B = Cc1ccc(NC(=O)Nc2cc(-c3ccccc3-c3nnn[nH]3)nc(N3CCc4ccccc4C3)n2)cc1
C = CC(C)CN(Cc1ccccc1)c1cc(Nc2ccc3c(c2)OCO3)cc(-c2ccccc2-c2nnn[nH]2)n1 [Example 138]
D = CCN(Cc1ccccc1)c1cc(NC(=O)Nc2ccc(OC(F)F)cc2)cc(-c2ccccc2-c2nnn[nH]2)n1
E = CC(C)CN(Cc1ccc(F)cc1)c1cc(Nc2ccc3c(c2)OCO3)cc(-c2ccccc2-c2nnn[nH]2)n1
(Q) List the 5 entries from lowest pIC50 to highest pIC50 value. Provide your answer as the labels ordered per the instruction.
(A) B, D, A, C, E
